molecular target: Cyclin-dependent kinase 6 (Homo sapiens) (UniProt Q00534); settings: at 1 µM;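 note: mean percent inhibition of the kinase bound to its cyclin partner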
Sequence (Q00534 whole entry): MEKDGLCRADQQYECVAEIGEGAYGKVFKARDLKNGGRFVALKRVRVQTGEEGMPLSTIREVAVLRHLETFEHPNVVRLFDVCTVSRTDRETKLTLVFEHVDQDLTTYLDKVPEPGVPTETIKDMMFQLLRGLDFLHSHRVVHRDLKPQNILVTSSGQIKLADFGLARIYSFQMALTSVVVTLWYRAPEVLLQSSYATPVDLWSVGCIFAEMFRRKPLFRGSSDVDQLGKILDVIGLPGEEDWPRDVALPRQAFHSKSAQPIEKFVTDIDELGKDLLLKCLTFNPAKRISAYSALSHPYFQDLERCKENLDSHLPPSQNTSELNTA
measuredMetric: inhibition (%)
A number alone suffices; assume %.

# example entries with known answers
CC1=C(C(=O)Nc2ccc3[nH]ncc3c2)C(c2ccc(Cl)c(Cl)c2)CC(=O)N1 (stereo unspecified) : 0.05
COc1ccc2cc(-c3c(-c4ccncc4)nc(-c4ccc([S+](C)[O-])cc4)n3C)ccc2c1 (stereo unspecified) : -1.41
COC(=O)Nc1nc2cc(Oc3cccc(NC(=O)Nc4cc(C(F)(F)F)ccc4F)c3)ccc2[nH]1 : 1.18
NCc1ccc(-c2nc(-c3ccc(Cl)c(O)c3)c(-c3ccncc3)[nH]2)cc1 : 1.53
CN1CCC(C(=O)Nc2n[nH]c3nnc(-c4ccccc4)cc23)CC1 : 21.4
COc1cc2c(cc1Nc1nc(N3CCc4ccccc43)c3cc[nH]c3n1)N(C(=O)CN(C)C)CC2 : 1.09
O=C1NC(=O)C(N2CCc3ccccc32)=C1c1ccc(Cl)cc1 : 5.39
CS(=O)(=O)Nc1ccc(N/C=C2\C(=O)Nc3ccccc32)cc1 : 59.4
Fc1cccc(COc2ccc(Nc3ncnc4cc(-c5ccc[nH]5)sc34)cc2Cl)c1 : -4.56
Nc1ncnc2occ(-c3ccc(NC(=O)Nc4cc(C(F)(F)F)cc(C(F)(F)F)c4)cc3)c12 : 3.73

--- query ---
Q: Return inhibition (reported value) for this molecule: "Cc1cc(O)cc(C)c1/C=C/c1cncc(-c2nn[nH]n2)c1"
A: -0.68

---

Molecular target: Calcium/calmodulin-dependent protein kinase type IV (Homo sapiens) (UniProt Q16566);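 note: each value is a mean inhibition of CAMK4, part of the GSK PKIS kinase screening panel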
Sequence (whole entry): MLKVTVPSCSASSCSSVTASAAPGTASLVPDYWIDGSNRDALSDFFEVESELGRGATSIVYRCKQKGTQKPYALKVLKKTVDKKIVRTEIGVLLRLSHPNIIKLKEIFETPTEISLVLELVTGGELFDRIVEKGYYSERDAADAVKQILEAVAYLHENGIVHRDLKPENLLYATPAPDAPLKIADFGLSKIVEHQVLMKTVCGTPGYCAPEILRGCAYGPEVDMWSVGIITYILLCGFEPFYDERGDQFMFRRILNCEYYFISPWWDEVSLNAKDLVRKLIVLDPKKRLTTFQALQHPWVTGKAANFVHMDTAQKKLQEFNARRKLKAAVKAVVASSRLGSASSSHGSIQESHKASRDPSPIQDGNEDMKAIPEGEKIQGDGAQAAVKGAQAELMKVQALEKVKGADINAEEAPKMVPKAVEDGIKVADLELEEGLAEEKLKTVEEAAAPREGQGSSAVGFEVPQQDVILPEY
Settings: at 0.1 µM
measuredMetric: inhibition (%)
A number alone suffices; assume %.

# example entries with known answers
CCn1c(-c2nonc2N)nc2c(C#CC(C)(C)O)nc(CN3CCCC3)cc21 : -3.55
[O-][S+]1CCN(Cc2ccc(-c3ccc4ncnc(Nc5ccc(OCc6ccccc6)c(F)c5)c4c3)o2)CC1 : 0.91
CCn1c(-c2nonc2N)nc2cncc(C(=O)N3CCNCC3)c21 : -0.66
CC1=C(C(=O)Nc2ccc3[nH]ncc3c2)C(c2ccc3ccccc3c2)CC(=O)N1 (stereo unspecified) : 1.12
Nc1nc(-c2ccccn2)c(-c2ccc3ncccc3n2)s1 : -0.73

--- query ---
Q: Return inhibition (reported value) for this compound: "O=C1NC(=O)C(c2ccccc2Cl)=C1Nc1cccc(O)c1"
A: 0.91

---

Here the recorded inhibition is given for each entry.
tested on: Tyrosine-protein kinase ABL1 (Homo sapiens), P00519 [T315I]; conditions: at 0.1 µM

# example entries with known answers
CCc1cccc(NC(=O)Nc2ccc(Oc3ccc4nc(NC(=O)OC)[nH]c4c3)cc2)c1 : 40.6%
CNC(=O)c1cncc(/C=C/c2c(Cl)cccc2Cl)c1 : -0.11%

Q: Return inhibition (reported value) for this compound: CC1=C(C(=O)Nc2ccc3[nH]ncc3c2)C(c2ccc(F)cc2)NC(=O)N1 (stereo not given)
A: 0.1%

Q: Return inhibition (reported value) for this compound: "COc1cc2ncn(-c3cc(OCc4ccccc4Cl)c(C(N)=O)s3)c2cc1OC"
A: 3.9%

Q: Return inhibition (reported value) for this compound: "COc1ccc(-c2coc3ncnc(N)c23)cc1"
A: 1.41%

Q: Return inhibition (reported value) for this compound: "CC(=O)Nc1cccc(C#Cc2cncnc2Nc2ccc(OCc3cccc(F)c3)c(Cl)c2)n1"
A: 0.4%

Q: Return inhibition (reported value) for this compound: "CCn1c(-c2nonc2N)nc2cnc(Oc3cccc(NC(=O)c4ccc(OCCN5CCOCC5)cc4)c3)cc21"
A: 4.38%

Q: Return inhibition (reported value) for this compound: "O=C1Nc2ccc(C(=O)c3ccco3)cc2C1=Cc1cc(Cl)c(O)c(Cl)c1"
A: 3.59%

Q: Return inhibition (reported value) for this compound: "COc1cc2c(cc1Nc1nc(N3CCc4ccccc43)c3cc[nH]c3n1)N(C(=O)CN(C)C)CC2"
A: 1.05%

Q: Return inhibition (reported value) for this compound: "NS(=O)(=O)c1cccc(-c2ccc3c(NC(=O)C4CC4)n[nH]c3c2)c1"
A: 3.32%

---

biological target: Casein kinase I isoform gamma-2 (Homo sapiens); details: at 1 µM
Description: GSK_PKIS: CK1-g2 mean inhibition at 1 uM [Nanosyn]
Here the recorded inhibition is given for each entry.
A number alone suffices; assume %.

# example entries with known answers
Fc1cccc(COc2ccc(Nc3ncnc4sc(-c5cccs5)cc34)cc2Cl)c1 : 0.26
CS(=O)(=O)CCNCc1nc(-c2ccc3ncnc(Nc4ccc(F)c(Cl)c4)c3c2)cs1 : 0.64
COc1cc2ncn(-c3cc(O[C@H](C)c4ccccc4Cl)c(C(N)=O)s3)c2cc1OC : 2.68
COc1cc2ncn(-c3cc(OCc4ccccc4Cl)c(C(N)=O)s3)c2cc1OC : 1.68

Q: Tell me its inhibition on Casein kinase I isoform gamma-2 (Homo sapiens): "Cc1nn(C)c2cc(N(C)c3ccnc(Nc4cccc(S(N)(=O)=O)c4)n3)ccc12"
A: 2.93

Q: Tell me its inhibition on Casein kinase I isoform gamma-2 (Homo sapiens): "c1cnn2ncc(-c3ccnc(Nc4ccc5c(c4)OCCO5)n3)c2c1"
A: 46.9

Q: Tell me its inhibition on Casein kinase I isoform gamma-2 (Homo sapiens): CC1=C(C(=O)Nc2ccc3[nH]ncc3c2)C(c2ccc(Cl)c(Cl)c2)CC(=O)N1 (stereo not given)
A: 1.4

Q: Tell me its inhibition on Casein kinase I isoform gamma-2 (Homo sapiens): "CS(=O)(=O)Nc1ccc(N/C=C2\C(=O)Nc3ccccc32)cc1"
A: 2.22

Q: Tell me its inhibition on Casein kinase I isoform gamma-2 (Homo sapiens): "Cc1ccc(C(=O)NC2CCCCC2)cc1-c1ccc(C(=O)NCC2CC2)cc1"
A: 2.68

Q: Tell me its inhibition on Casein kinase I isoform gamma-2 (Homo sapiens): "NC(=O)c1cccc(Nc2nccc(Nc3cccc4[nH]ncc34)n2)c1"
A: 1.89

Q: Tell me its inhibition on Casein kinase I isoform gamma-2 (Homo sapiens): "CC(C)=Cc1cccc2c1/C(=N/Nc1ccc(S(N)(=O)=O)cc1)C(=O)N2"
A: 0.64

---

Here the recorded inhibition is given for each entry.
biological target: Tyrosine-protein kinase Fer (Homo sapiens) (UniProt P16591); settings: at 0.1 µM;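 note: reported figures are averaged percent inhibition of FER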
Sequence (P16591 whole entry, looked up): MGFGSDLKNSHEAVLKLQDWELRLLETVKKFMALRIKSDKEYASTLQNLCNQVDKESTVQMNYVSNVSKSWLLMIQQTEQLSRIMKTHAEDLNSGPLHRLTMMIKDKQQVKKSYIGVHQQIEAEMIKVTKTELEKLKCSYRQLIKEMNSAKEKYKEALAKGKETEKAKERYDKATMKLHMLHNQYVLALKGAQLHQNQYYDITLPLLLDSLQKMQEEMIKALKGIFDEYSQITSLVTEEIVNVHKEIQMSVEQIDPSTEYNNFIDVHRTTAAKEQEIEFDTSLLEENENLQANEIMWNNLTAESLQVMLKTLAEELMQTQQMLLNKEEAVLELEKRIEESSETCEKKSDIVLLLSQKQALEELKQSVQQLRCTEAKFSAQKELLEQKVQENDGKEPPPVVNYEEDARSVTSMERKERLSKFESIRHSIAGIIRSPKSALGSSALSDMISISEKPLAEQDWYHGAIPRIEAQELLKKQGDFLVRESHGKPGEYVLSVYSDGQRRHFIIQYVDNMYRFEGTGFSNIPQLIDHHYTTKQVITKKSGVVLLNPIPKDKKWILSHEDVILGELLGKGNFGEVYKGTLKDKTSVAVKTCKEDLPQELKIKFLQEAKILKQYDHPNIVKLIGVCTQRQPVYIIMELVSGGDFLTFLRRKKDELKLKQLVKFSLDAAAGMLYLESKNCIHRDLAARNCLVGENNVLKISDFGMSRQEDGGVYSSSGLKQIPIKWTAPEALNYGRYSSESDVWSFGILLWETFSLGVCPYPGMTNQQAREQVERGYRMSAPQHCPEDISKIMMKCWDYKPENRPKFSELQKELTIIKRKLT
A number alone suffices; assume %.

# example entries with known answers
COc1cc2ncn(-c3cc(O[C@H](C)c4ccccc4Cl)c(C(N)=O)s3)c2cc1OC : 4.62
CN(C)c1cc2c(Nc3ccc4nc(Cc5ccccc5)[nH]c4c3)ncnc2cn1 : 5.55

Q: Return inhibition (reported value) for this molecule: "CCN1CCC(CC(=O)Nc2n[nH]c3nc(-c4cccs4)c(Br)cc23)CC1"
A: 0.22

Q: Return inhibition (reported value) for this molecule: "N#Cc1c(NC(=O)c2cccc3ccccc23)sc2c1CCCC2"
A: 2.88

Q: Return inhibition (reported value) for this molecule: "CS(=O)(=O)CCNCc1nc(-c2ccc3ncnc(Nc4ccc(F)c(Cl)c4)c3c2)cs1"
A: 1.44

---

molecular target: Casein kinase I isoform alpha (Homo sapiens) (UniProt P48729); conditions: at 1 µM;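 note: each value is a mean percent inhibition of the kinase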
Sequence (P48729 2-337 limits assumed): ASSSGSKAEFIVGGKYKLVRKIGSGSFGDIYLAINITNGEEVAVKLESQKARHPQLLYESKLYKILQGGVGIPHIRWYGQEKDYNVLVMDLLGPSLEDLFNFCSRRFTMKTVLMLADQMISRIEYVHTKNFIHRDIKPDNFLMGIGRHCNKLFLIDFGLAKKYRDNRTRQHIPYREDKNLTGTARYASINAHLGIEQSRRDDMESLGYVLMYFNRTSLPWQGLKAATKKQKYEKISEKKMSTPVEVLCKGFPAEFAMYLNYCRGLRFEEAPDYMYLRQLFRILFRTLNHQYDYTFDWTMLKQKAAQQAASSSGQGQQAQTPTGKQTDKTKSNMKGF
measuredMetric: inhibition (%)
A number alone suffices; assume %.

# example entries with known answers
Cn1cc(C=C2C(=O)Nc3cccnc32)c2ccccc21 : 14.3
COc1cc2ncn(-c3cc(OCc4ccccc4Cl)c(C(N)=O)s3)c2cc1OC : 0.67
CCn1c(-c2nonc2N)nc2ccncc21 : 1.43
COC(=O)Nc1nc2cc(Oc3cccc(NC(=O)Nc4cc(C(F)(F)F)ccc4F)c3)ccc2[nH]1 : -0.8
Cc1cc(O)cc(C)c1/C=C/c1cncc(-c2nn[nH]n2)c1 : 10.6

--- query ---
Q: Return inhibition (reported value) for this compound: "COc1ccc(-c2nn3ncccc3c2-c2ccnc(Nc3ccc(Cl)c(C(F)(F)F)c3)n2)cc1"
A: 0.96

---

Molecular target: Discoidin domain-containing receptor 2 (Homo sapiens);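 note: reported values are mean percent inhibition of DDR2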
Sequence (whole entry): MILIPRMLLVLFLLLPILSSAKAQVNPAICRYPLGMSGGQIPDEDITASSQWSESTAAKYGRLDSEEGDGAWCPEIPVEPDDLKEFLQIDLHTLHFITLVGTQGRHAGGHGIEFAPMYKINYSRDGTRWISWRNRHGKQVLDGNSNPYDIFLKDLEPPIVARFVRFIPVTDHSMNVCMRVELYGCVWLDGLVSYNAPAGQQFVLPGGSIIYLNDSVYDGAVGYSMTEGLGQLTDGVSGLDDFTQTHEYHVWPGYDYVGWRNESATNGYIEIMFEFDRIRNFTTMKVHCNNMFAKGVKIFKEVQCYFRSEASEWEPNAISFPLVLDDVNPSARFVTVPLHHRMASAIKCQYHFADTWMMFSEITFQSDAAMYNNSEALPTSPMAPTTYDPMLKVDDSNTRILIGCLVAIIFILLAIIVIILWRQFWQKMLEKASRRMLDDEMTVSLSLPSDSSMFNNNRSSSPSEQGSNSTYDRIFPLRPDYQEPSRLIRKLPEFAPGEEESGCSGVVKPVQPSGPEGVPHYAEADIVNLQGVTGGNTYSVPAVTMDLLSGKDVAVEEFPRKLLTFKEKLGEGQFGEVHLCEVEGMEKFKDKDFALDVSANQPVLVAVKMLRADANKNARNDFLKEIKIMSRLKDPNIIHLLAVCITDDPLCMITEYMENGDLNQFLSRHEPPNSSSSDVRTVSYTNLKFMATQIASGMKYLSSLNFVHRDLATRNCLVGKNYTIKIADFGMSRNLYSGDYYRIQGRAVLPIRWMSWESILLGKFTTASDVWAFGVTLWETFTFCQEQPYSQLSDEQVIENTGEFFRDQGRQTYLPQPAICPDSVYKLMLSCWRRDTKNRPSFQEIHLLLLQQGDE
Settings: at 0.1 µM
Here the recorded inhibition is given for each entry.
A number alone suffices; assume %.

Q: Return inhibition (reported value) for this molecule: "COc1cc(C=NNc2ncnc3c2cnn3-c2ccccc2)ccc1O"
A: 5.59

Q: Return inhibition (reported value) for this molecule: "CCn1c(-c2nonc2N)nc2c(N3CCCC3)nccc21"
A: 0.93

Q: Return inhibition (reported value) for this molecule: "Cc1nnc(-c2ccc(C)c(-c3ccc(C(=O)Nc4cccc(C#N)c4)cc3)c2)o1"
A: 1.45

Where do the numbers come from? From ChEMBL document CHEMBL1961873.
